PROCEDURE TEXT: protein stability index of a GFP-peptide fusion (GPS, HEK-293T) (PSI 1-6); higher = more stable;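 further: 24-mer peptide tiles fused after GFP, lentivirally expressed, FACS-sorted into six equal bins by GFP/DsRed ratio, decoded by Illumina sequencing, PSI is the read-weighted mean bin number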
ASSAY SETUP: treatment: MLN4924 1 uM, 8 h; c terminus: a fixed tail appended
Entries annotated with measured protein stability index

Some entries whose results are on file:
RESIDUES	protein stability index
VDGKTIKAQIWDTAGQERYRAITS [RAB11A]	3.68
MDLLTQSLGVDTLPPPDPNPPRAE [APBB1IP]	4.87
PGGGGSPGACPALGTKSCSSSCAV [RTN3]	4.07
IWAQGWVPAAGGPAPKRGYSSEMK [AUH]	2.9
GPLPPAPAMVRISKPKTFQAYLDD [YPEL3]	4.33
ANQKLSEKLAAGALPHINARGPVR [CCDC3]	3.86

// query protein stability index value for entry EDMLLPLAWRIVNDTYRTDLCLLY [CCNC]
2.59

// query protein stability index value for entry EKWAEGGGHSRERADEPQWSLYPS [CHGB]
4.24

// query protein stability index value for entry NPLICPVCTKYNLRITSGVVVCQC [RPAIN]
4.16

// query protein stability index value for entry MVGEEKMSLRNRLSKSRENPEEDE [SOAT1]
5.44

// query protein stability index value for entry GKEVKVNWATTPSSQKKDTSSSTV [TIA1]
4.92

// query protein stability index value for entry RHRLRWHSFQSSHRPSLNSVSLQI [DLC1]
2.58

---

PROCEDURE TEXT: protein stability index of a GFP-peptide fusion (GPS, HEK-293T) (PSI 1-6); higher = more stable
ASSAY SETUP: treatment: DMSO; c terminus: a fixed tail appended
Grouping key: protein stability index. Bins: group 1 (below 3), group 2 (3 to below 5), group 3 (5 or more)

Examples from the recorded data:
RESIDUES	GROUP
AQSGERECHIVVLTDDDVVDWDEE [BTBD10]	group 3
VLGGRRLRRAWFSWPRASPASGAS [SCNN1D]	group 1
QYSGMLDCARRILAREGVAAFYKG [SLC25A25]	group 1
QAQMIHPKPADFRNPGPGRHRLIT [INTS4]	group 2
DPACYEFLWGPRALIETSYVKVLH [MAGEA6]	group 1
EECTDLQKEGEFSTCFTELQRDFL [OAS1]	group 2

Looking at PQTVGVGRARFTTYEVRMRTNLPI [SNX12] , which class would you pick?
group 1

Looking at AHGADPTHRLKDGSTMLIEAAKGG [ANKRD17] , which class would you pick?
group 2

Looking at QSRGVPAVSESYSAPGACEEPTER [FBXO34] , which class would you pick?
group 3

---

PROCEDURE TEXT: protein stability index of a GFP-peptide fusion (GPS, HEK-293T) (PSI 1-6); higher = more stable
ASSAY SETUP: treatment: MLN4924 1 uM, 8 h; c terminus: a fixed tail appended
RECORDED METRIC: protein stability index
Simply state the number, no unit and no words.

RESIDUES	RECORDED METRIC	RECORDED MEASUREMENT
PNKGLLSDSMTDVPVDTGVAARTP [TPD52L2]	protein stability index	4.93

From here, focus on the item given below.
// query protein stability index value for entry RDHSVRVLISNHVTPFDHNIVNLL [AUP1]
2.12

---

PROCEDURE TEXT: protein stability index of a GFP-peptide fusion (GPS, HEK-293T) (PSI 1-6); higher = more stable
ASSAY SETUP: treatment: MLN4924 1 uM, 8 h; c terminus: a fixed tail appended
Rule: true for protein stability index not less than 3, false for anything less.

Examples from the recorded data:
RESIDUES	GROUP
ENPETDLHVNPKKQTIGNSCKACG [EIF5]	true
ALLALDENFDHNTLALILQIPTQN [PPFIA4]	false
WDPSVQSCKEGLSPRGPAPGEEKF [ZNF263]	true
SPDKDSIMNIEPAILVMHHSMKPH [INTS3]	true

Kindly determine if protein stability index recorded for PDALSDVGEVPYWVLEPVLEGWRP [ELOA2] is above or exactly 3.
true

Kindly determine if protein stability index recorded for AEGPNRLLYKDGFSTILHLLLGSP [LPCAT4] is above or exactly 3.
false

Kindly determine if protein stability index recorded for RTTKPMAQRSAHCSRPSGSSSSSG [CSNK1G1] is above or exactly 3.
true

Kindly determine if protein stability index recorded for PEGSQDRNTSWGVVQEPPGRASRF [TLE6] is above or exactly 3.
true

Kindly determine if protein stability index recorded for DRFQVPTTEVNAWLVHRDPEGSVS [NFE2L1] is above or exactly 3.
true
